target.system: UniProt:P40337
Sequence (P40337 whole entry): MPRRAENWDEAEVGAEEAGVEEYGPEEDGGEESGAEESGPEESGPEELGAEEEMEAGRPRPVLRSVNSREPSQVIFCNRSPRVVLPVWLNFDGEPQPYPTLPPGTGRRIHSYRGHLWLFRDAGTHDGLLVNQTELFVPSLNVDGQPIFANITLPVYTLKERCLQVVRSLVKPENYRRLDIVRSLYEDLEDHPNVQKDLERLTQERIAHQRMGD
experiment: Binding affinity to VHL E3 ligase (unknown origin) assessed as dissociation constant by isothermal titration calorimetry assay
pKd: −log10 of the molar value.
test.readout: pKd

* COC(=O)c1ccc(CNC(=O)[C@@H]2C[C@@H](O)CN2C(=O)CC(C)(C)C)cc1 | 4.34

----------
target.system: Survival motor neuron protein (Homo sapiens)
experiment: Modulation of human SMN2 level in NSC34 cells assessed as fold change by ELISA
Type: cell-based
assay.setup: NSC-34, filed as modulator
Entries and their fold change (FC)
test.readout: fold change (FC)

- CC1(C)CC(Oc2ccc(-c3ccc(-c4cn[nH]c4)cc3O)nn2)CC(C)(C)N1: 3.6
- Oc1cc(-n2cccn2)ccc1-c1ccc(OC2CCNCC2(F)F)nn1 (stereo not given): 1.2
- CN(c1ccc(-c2ccc(-c3cn[nH]c3)cc2O)nn1)C1CC(C)(C)NC(C)(C)C1: 3.1
- CC1(C)CC(Oc2ccc(-c3ccc(-n4cccn4)cc3O)nn2)CC(C)(C)N1: 3.3
- CN(c1ccc(-c2ccc(-n3cccn3)cc2O)nn1)C1CC(C)(C)NC(C)(C)C1: 3.1

----------
Entries and their EC1.5
target.system: Survival motor neuron protein (Homo sapiens)
experiment: Modulation of human SMN2 level in NSC34 cells assessed as fold change by ELISA
Assay type: cell-based
assay.setup: NSC-34, filed as modulator
test.readout: EC1.5 (nM)

• Cc1cn2nc(-c3cc(=O)n4cc(N5CCN(C)CC5)ccc4n3)cc2c(C)n1 = 170
• CCN1CCN(c2ccc3nc(-c4cc5c(C)nc(C)cn5n4)cc(=O)n3c2)CC1 = 30
• Cc1cn2nc(-c3cc(=O)n4cc(N5CCNC6(CC6)C5)ccc4n3)cc(C)c2n1 = 4
• CCc1nc(C)cn2nc(-c3cc(=O)n4cc(N5CCN(CC)CC5)ccc4n3)cc12 = 23
• C=C(CCNC(=O)CCCC)N1CCN(c2ccc3nc(-c4cc(F)c5nc(C)cn5c4)cc(=O)n3c2)CC1 = 43
• Cc1cn2cc(-c3cc(=O)n4cc(N5CCN(C)CC5)ccc4n3)cc(F)c2n1 = 15
